System: Rattus norvegicus
Test: AUC (0 to 4 hrs) in rat at 10 mg/kg, po
Format: ADME, organism-based, Plasma
Set-up: time < 4 hr, dose 10 mg/kg, route oral
Conditions: in vivo
measurement.type: AUC (ng·h/mL)

* Cc1ccc(C(=O)NC2CC2)cc1Nc1ncnn2cc(C(=O)c3ccccc3)c(C)c12 | 2300

====

Assay: Plasma concentration in rat at 10 mg/kg, po after 4 hrs
Assay type: ADME, organism-based
Set-up: dose 10 mg/kg, route oral
measurement.type: concentration at 4 h

• Cc1ccc(C(=O)NC2CC2)cc1Nc1ncnn2cc(C(=O)c3ccccc3)c(C)c12 = 550 ng/mL

Origin of measurements: ChEMBL document CHEMBL1806462
